The values you see were collected from patent US20090131431A1.

- Tested Target: PDE4B (human recombinant) (Homo sapiens)
- Construct: made in house
- Sequence (Q07343 1-564 isoform Q07343-2): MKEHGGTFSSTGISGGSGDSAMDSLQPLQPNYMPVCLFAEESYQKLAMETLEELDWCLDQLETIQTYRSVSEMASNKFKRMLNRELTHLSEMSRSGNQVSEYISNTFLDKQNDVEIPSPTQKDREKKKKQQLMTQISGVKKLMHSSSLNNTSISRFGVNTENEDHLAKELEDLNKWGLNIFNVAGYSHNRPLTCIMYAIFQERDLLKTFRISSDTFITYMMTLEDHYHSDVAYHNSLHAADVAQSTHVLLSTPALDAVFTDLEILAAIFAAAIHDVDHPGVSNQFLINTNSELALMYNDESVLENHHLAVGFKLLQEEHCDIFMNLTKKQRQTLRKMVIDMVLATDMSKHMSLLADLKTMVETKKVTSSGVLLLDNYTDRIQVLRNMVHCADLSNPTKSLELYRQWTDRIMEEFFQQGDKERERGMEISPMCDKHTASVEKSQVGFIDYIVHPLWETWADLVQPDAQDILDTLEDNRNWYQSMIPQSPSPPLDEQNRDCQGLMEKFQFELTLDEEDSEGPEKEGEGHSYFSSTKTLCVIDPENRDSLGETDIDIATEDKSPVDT
- Procedure Summary: Inhibition of PDE4B activity: SPA and/or Fluorescence Polarisation (FP) assay
- Assay type: biochemical
- Setup Conditions: one reading (n=1) or average of 2 or more readings, read-out: PDE4B pIC50 (±about 0.5) (converted)
Counter-ions that a name gives are not always drawn.
// reported IC50 per item

> print(dat)
                                   compound  observed.value
1  CCn1ncc2c(NC3CCOCC3)c(CNC(=O)c3cnc(C)s3)c(C(F)(F)F)nc21 [Example 349]  126 to 1000 pM
2  CCc1nc2c(cnn2CC)c(NC2CCOCC2)c1CNC(=O)c1ccc(C#N)nc1 [Example 325]  126 to 1000 pM
3  CCn1ncc2c(NC3CCOCC3)c(CNC(=O)c3cnc(C(C)(C)C)nc3)c(C)nc21 [Example 336]  126 to 1000 pM

### Prompt Need IC50, item CCc1nc2c(cnn2CC)c(NC2CCOCC2)c1CNC(=O)c1ccc(C(C)C)cc1 [Example 193]
### Response 10 to 100 pM

### Prompt Need IC50, item CCc1nc2c(cnn2CC)c(NC2CCOCC2)c1CNC(=O)c1ccc(S(C)(=O)=O)cc1 [Example 249]
### Response 126 to 1000 pM

### Prompt Need IC50, item CCc1nc2c(cnn2CC)c(NC2CCOCC2)c1CNC(=O)c1ccc(C(F)(F)F)nc1 [Example 326]
### Response 126 to 1000 pM

### Prompt Need IC50, item CCn1ncc2c(NC3CCOCC3)c(CN3Cc4occc4C3=O)c(C)nc21 [Example 301]
### Response 126 to 1000 pM

### Prompt Need IC50, item CCc1nc2c(cnn2CC)c(NC2CCOCC2)c1CNC(=O)c1ccc2c(c1)CCCS2(=O)=O [Example 258]
### Response 10 to 100 pM

### Prompt Need IC50, item CCc1nc2c(cnn2CC)c(NC2CCN(C(N)=O)CC2)c1CN1Cc2ccccc2C1=O [Example 212, Formate]
### Response 10 to 100 pM
